Tested on: Monochoria vaginalis
measurement-notes: Paddy herbicidal activity test
Type: in vivo
stated-conditions: 5g a.i./10a; irrigated paddy pot; 30 days
assay-readout: herbicidal efficacy Monochoria vaginalis

These solved cases illustrate the format of a correct answer.
Inquiry: Provide value of herbicidal efficacy Monochoria vaginalis for this record tested with Monochoria vaginalis: C=CCOC(=O)N(C(=O)OCC=C)c1c(C#N)cnn1-c1nn2c(c1Cl)CCCC2 [Compound 14]
Reply text: 10 (10: 100%)

Inquiry: Provide value of herbicidal efficacy Monochoria vaginalis for this record tested with Monochoria vaginalis: CCOC(=O)N(C(=O)OCC)c1c(C#N)cnn1-c1nn2c(c1Br)CCCC2 [Compound 8]
Reply text: 10 (10: 100%)

Inquiry: Provide value of herbicidal efficacy Monochoria vaginalis for this record tested with Monochoria vaginalis: CCOC(=O)N(C(=O)OC)c1c(C#N)cnn1-c1nn2c(c1Cl)CCCC2 [Compound 1]
Reply text: 10 (10: 100%)

Inquiry: Provide value of herbicidal efficacy Monochoria vaginalis for this record tested with Monochoria vaginalis: CCOC(=O)N(C(=O)OCC)c1c(C#N)cnn1-c1nn2c(c1Cl)CCCC2 [Compound 6]
Reply text: 10 (10: 100%)

Inquiry: Provide value of herbicidal efficacy Monochoria vaginalis for this record tested with Monochoria vaginalis: COC(=O)N(C(=O)OC)c1c([N+](=O)[O-])cnn1-c1nn2c(c1Br)CCCC2 [Compound 5]
Reply text: 10 (10: 100%)

Proceed to the following item.
Inquiry: Provide value of herbicidal efficacy Monochoria vaginalis for this record tested with Monochoria vaginalis: COC(=O)N(C(=O)OC)c1c(C#N)cnn1-c1nn2c(c1Br)CCCC2 [Compound 4]
Reply text: 10 (10: 100%)

Data provenance is patent US10165779B2.
